# Test system: HCC 2998
# Experiment notes: NCI tumour cell line growth inhibition, 48 h
Calls of active or inactive are those of the source. Cut-off read from the data, not from the text of the source: active = GI50 up to about 1.1 µM and inactive = higher.
Outcomes: active, inactive

- Compound: "CCOC(=O)c1c2c(n(-c3ccc(OC)cc3)c1C)C(=O)C(=O)c1ccccc1-2"
  Qualitative label: "inactive"
- Compound: "CC1OC1C(=O)C1(O)C(C)C(O)C23OC2(C(O)c2c(O)cccc2C3=O)C1O (configuration not stated)"
  Qualitative label: "active"
- Compound: "CC(C)OC(=O)NNc1cc(Cl)ccc1Cl"
  Qualitative label: "inactive"
- Compound: "Cc1cc(S(=O)(=O)O)c(NC(=O)c2oc3cc(O)ccc3c(=O)c2C)cc1Cl"
  Qualitative label: "inactive"
- Compound: "Cc1ccc(S(=O)(=O)ON/N=C2/C3OC3[C@@H]3CCCC[C@H]23)cc1 (some centres not stated)"
  Qualitative label: "inactive"
- Compound: "COc1ccc(/N=N/C(=N\\c2ccc(Cl)cc2)c2ccc(N(CCC#N)CCC#N)cc2)cc1"
  Qualitative label: "inactive"
- Compound: "CCSC1=CC(=O)c2nc3ccccc3c3ccnc1c23"
  Qualitative label: "inactive"
- Compound: "O=C(C#Cc1ccccc1)Nc1ccccc1CC(c1c[nH]c2ccccc12)c1c[nH]c2ccccc12"
  Qualitative label: "inactive"
- Compound: "CC(C)(C)/C(O)=C\\c1nc2cc(F)c(F)cc2[nH]c1=O"
  Qualitative label: "inactive"
- Compound: "COc1cc(/C=C/C(=O)CC(=O)/C=C/c2cc(C)c(O)c(OC)c2)cc(C)c1O"
  Qualitative label: "inactive"
- Compound: "C[C@]12CC[C@@H]3c4ccc(OS(N)(=O)=O)cc4CC[C@H]3[C@@H]1CCC2=O [EMATE]"
  Qualitative label: "inactive"
- Compound: "Cc1ccc(CC(=O)Nc2ccc(NC(=O)CNC(=O)/C=C/c3ccc(-c4ccccc4)cc3)cc2C(=O)c2ccccc2)cc1"
  Qualitative label: "inactive"
